Biological target: PI3Kβ (Homo sapiens, UniProt P42338)
Construct: purchased DiscoveRx Corporation, San Diego (contract service, KINOMEscan)
Sequence (P42338 whole entry): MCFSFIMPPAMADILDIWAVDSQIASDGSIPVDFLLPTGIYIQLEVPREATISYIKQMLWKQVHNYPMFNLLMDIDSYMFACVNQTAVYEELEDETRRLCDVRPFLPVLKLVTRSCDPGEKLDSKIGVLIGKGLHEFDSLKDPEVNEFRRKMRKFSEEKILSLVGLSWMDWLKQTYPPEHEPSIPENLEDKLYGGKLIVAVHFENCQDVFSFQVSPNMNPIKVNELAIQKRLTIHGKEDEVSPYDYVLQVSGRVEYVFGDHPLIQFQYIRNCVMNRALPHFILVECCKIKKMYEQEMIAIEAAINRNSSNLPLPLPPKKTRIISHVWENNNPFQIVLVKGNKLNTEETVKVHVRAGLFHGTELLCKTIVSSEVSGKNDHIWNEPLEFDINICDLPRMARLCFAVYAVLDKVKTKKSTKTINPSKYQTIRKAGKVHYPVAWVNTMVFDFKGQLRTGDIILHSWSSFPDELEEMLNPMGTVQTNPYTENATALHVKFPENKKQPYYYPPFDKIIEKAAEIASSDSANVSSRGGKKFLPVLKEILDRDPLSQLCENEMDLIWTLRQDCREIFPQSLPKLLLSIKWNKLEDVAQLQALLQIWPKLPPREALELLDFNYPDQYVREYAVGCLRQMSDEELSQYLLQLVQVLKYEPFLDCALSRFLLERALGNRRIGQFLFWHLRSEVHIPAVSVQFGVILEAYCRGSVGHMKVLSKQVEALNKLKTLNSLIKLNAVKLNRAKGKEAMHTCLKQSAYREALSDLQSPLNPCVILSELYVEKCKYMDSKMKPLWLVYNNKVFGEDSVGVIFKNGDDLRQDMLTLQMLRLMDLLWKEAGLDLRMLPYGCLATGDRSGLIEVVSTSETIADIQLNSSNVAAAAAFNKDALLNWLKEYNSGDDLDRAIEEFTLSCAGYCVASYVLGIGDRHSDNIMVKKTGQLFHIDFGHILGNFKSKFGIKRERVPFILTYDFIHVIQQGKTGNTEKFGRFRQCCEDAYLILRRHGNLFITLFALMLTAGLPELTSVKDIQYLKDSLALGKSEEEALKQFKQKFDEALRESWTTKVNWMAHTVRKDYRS
Test: Enzyme binding assay (KINOMEscan, DiscoveRx)
Details: PIK3Cβ_h, read-out: Kd PIK3Cβ_h
Reported property: pKd
# pKd is unitless: minus log10 of the molar concentration; print number only

Solved cases (3 shown):
Q. Which pKd value is on record for C[C@@H]1CN(c2cnc3cc(C(=O)N(C)C)cc(C4CCCN4c4cc(F)cc(F)c4)c3n2)CCO1 (stereo partly shown) [Compound 3] ?
A. 9.00

Q. Which pKd value is on record for CC(Nc1cc(F)cc(F)c1)c1cc(C(=O)N2CC3(C2)CS(=O)(=O)C3)cc2ncc(N3CCOCC3)nc12 (stereo not shown) [Compound 148] ?
A. 9.00

Q. Which pKd value is on record for Cc1c(F)cccc1CN(C)c1cc(C(=O)N(C)[C@@H]2CCNC2)cc2ncc(N3CCOCC3)nc12 [Compound 359] ?
A. 7.37

API: the following record is the query input.
Q. Which pKd value is on record for CC(Nc1cc(F)cc(F)c1)c1cc(C(=O)NS(=O)(=O)C2CC2)cc2ncc(N3CCOCC3)nc12 (single isomer, unassigned) [Compound 220] ?
A. 5.56

* * *

System: Akt phosphorylated at Ser473 in PC-3 cells
Assay: Cellular assay: phosphorylation of Akt at Ser473 in PC-3 cells (MSD ELISA)
Format: cell-based
Details: PC-3 cells, 60 min compound incubation, MSD ELISA; read-out: IC50 pAkt_S473
The molecules listed here are annotated with their IC50.
Numeric answer only, unit nM assumed.

Solved cases (3 shown):
Q. Which IC50 value is on record for CNCCN(C)C(=O)c1cc(C(C)Nc2cc(F)c(F)c(F)c2)c2nc(N3CCOCC3)cnc2c1 (single isomer, unassigned) [Compound 335b] ?
A. 188

Q. Which IC50 value is on record for CC(Nc1cc(F)c(F)c(F)c1)c1cc(C(=O)NC[C@@H](C)O)cc2ncc(N3CCOCC3)nc12 (single isomer, unassigned) [Compound 284a] ?
A. 90

Q. Which IC50 value is on record for CC(Nc1cc(F)cc(F)c1)c1cc(CN2CCn3nccc3C2)cc2ncc(N3CCOCC3)nc12 (single isomer, unassigned) [Compound 210] ?
A. 245

API: the following record is the query input.
Q. Which IC50 value is on record for CNCCNC(=O)c1cc(C(C)Oc2cc(F)cc(F)c2)c2nc(N3CCOCC3)cnc2c1 (single isomer, unassigned) [Compound 165] ?
A. 45

* * *

pKd: −log10 of the molar value.
Observed pKd, system kinase enzymes (Homo sapiens, UniProt P42345).

Solved cases (8 shown):
Q. Reported pKd for kinase enzymes (Homo sapiens, UniProt P42345), given CC(Nc1ccc(F)c(F)c1)c1cc(C(=O)N2CCC[C@H](O)C2)cc2ncc(N3CCOCC3)nc12 (stereo partly shown) [Compound 302] ?
A. < 4.52

Q. Reported pKd for kinase enzymes (Homo sapiens, UniProt P42345), given CC(C)NCCNC(=O)c1cc(C(C)Nc2cc(F)c(F)c(F)c2)c2nc(N3CCOCC3)cnc2c1 (single isomer, unassigned) [Compound 283b] ?
A. < 4.52

Q. Reported pKd for kinase enzymes (Homo sapiens, UniProt P42345), given CC(Nc1ccc(F)c(F)c1)c1cc(C(=O)NCC2CCCN2)cc2ncc(N3CCOCC3)nc12 (single isomer, unassigned) [Compound 329b] ?
A. 4.64

Q. Reported pKd for kinase enzymes (Homo sapiens, UniProt P42345), given CC(Nc1cc(F)cc(F)c1)c1cc(C(=O)N2CCNC(C(F)(F)F)C2)cc2ncc(N3CCOCC3)nc12 (single isomer, unassigned) [Compound 237c] ?
A. < 4.52

Q. Reported pKd for kinase enzymes (Homo sapiens, UniProt P42345), given CNCCOCCN(C)C(=O)c1cc(C(C)Nc2cc(F)c(F)c(F)c2)c2nc(N3CCOCC3)cnc2c1 (single isomer, unassigned) [Compound 315a] ?
A. < 4.52

Q. Reported pKd for kinase enzymes (Homo sapiens, UniProt P42345), given CN1CCN(C(=O)c2cc(C3CCCN3c3cc(F)cc(F)c3)c3nc(N4CCOCC4)cnc3c2)CC1 (single isomer, unassigned) ?
A. < 4.52

Q. Reported pKd for kinase enzymes (Homo sapiens, UniProt P42345), given [2H]C([2H])(O)C([2H])([2H])NC(=O)c1cc(C(C)Nc2cccc(F)c2)c2nc(N3CCOCC3)cnc2c1 (single isomer, unassigned) [Compound 408b] ?
A. < 4.52

Q. Reported pKd for kinase enzymes (Homo sapiens, UniProt P42345), given `Cc1c(F)cccc1NCc1cc(C(=O)N(C)C)cc2ncc(N3CCOCC3)nc12` ?
A. < 4.52

Others:
Q. Reported pKd for kinase enzymes (Homo sapiens, UniProt P42345), given O=C(NCCCO)c1cc(C2CCCN2c2cc(F)cc(F)c2)c2nc(N3CCOCC3)cnc2c1 (stereo not shown) ?
A. 4.77

Q. Reported pKd for kinase enzymes (Homo sapiens, UniProt P42345), given CC(C)NCCNC(=O)c1cc(C(C)Oc2cccc(F)c2)c2nc(N3CCOCC3)cnc2c1 (single isomer, unassigned) [Compound 314a] ?
A. 4.72

Q. Reported pKd for kinase enzymes (Homo sapiens, UniProt P42345), given CN[C@H]1CCN(C(=O)c2cc(C(C)Oc3ccc(F)c(F)c3)c3nc(N4CCOCC4)cnc3c2)C1 (single isomer, unassigned) [Compound 370a] ?
A. < 4.52

Q. Reported pKd for kinase enzymes (Homo sapiens, UniProt P42345), given Cc1ccc(NC(C)c2cc(C(=O)NCCN(C)C)cc3ncc(N4CCOCC4)nc23)cc1F (single isomer, unassigned) [Compound 407b] ?
A. < 4.52

Q. Reported pKd for kinase enzymes (Homo sapiens, UniProt P42345), given CC(Oc1cccc(F)c1)c1cc(C(=O)NCCO)cc2ncc(N3CCOCC3)nc12 (single isomer, unassigned) [Compound 334a] ?
A. 4.57

Origin of the recorded values: patent US10526316B2
